Procedure details: Intrinsic clearance in human hepatocytes after 120 mins by LC-MS/MS analysis
Format: ADME, cell-based, Hepatocyte
Run parameters: read-out: CLH
Quantity kind: CLint scaled

As a guide, the following entries are already answered.
Input smiles	CLint scaled
N#C[C@H]1CCOC[C@@H]1n1cc(C(N)=O)c(Nc2ccc([C@H](O)C(F)(F)F)cc2)n1	< 20 mL/min/kg
N#C[C@H]1CCOC[C@@H]1n1cc(C(N)=O)c(Nc2ccc(F)cc2)n1	< 20 mL/min/kg

Given the entry `Cn1cc(-c2ccc(Nc3nn([C@H]4COCC[C@@H]4C#N)cc3C(N)=O)cc2)cn1` , report its measured CLint scaled.
< 20 mL/min/kg

====

// pIC50 collected for UniProt P23458
Sequence (P23458 whole entry): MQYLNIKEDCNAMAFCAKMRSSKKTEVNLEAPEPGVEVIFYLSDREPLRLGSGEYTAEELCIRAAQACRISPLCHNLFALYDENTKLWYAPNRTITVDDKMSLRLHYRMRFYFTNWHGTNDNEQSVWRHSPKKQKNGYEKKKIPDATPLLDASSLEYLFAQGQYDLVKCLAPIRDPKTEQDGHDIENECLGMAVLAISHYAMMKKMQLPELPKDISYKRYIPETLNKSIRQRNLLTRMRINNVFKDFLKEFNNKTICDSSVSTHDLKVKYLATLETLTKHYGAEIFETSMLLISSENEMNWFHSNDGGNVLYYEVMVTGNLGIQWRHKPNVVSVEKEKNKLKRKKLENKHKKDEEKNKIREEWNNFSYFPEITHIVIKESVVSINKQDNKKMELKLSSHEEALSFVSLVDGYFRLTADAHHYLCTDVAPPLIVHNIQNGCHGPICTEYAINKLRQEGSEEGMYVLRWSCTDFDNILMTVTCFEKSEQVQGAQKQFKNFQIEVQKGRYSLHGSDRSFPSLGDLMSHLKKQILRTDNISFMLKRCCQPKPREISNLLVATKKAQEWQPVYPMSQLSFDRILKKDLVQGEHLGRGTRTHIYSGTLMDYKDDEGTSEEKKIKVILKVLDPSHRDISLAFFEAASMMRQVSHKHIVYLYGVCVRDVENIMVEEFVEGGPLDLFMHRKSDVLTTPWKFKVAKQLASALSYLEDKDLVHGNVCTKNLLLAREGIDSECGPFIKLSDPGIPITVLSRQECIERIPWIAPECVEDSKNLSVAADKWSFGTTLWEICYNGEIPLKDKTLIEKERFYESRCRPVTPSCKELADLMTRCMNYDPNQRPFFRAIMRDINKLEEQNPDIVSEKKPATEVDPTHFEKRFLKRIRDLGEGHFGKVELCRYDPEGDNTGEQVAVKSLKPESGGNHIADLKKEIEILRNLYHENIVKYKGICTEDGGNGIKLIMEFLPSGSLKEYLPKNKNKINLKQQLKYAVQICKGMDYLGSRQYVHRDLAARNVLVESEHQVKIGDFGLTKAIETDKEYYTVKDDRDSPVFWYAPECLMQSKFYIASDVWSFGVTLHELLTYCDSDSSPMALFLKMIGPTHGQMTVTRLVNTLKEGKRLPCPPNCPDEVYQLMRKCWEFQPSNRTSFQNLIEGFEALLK
// returns pIC50 (minus log10 of molar concentration), number only

Use these answered entries as a reference point.
Input smiles	pIC50
COc1cc(Nc2nn([C@H]3COCC[C@@H]3C#N)cc2C(N)=O)cc(F)n1	9.40
N#C[C@H]1CCOC[C@@H]1n1cc(C(N)=O)c(Nc2ccc(C3CC3)cc2)n1	9.30

Report pIC50 for `N#C[C@H]1CCOC[C@@H]1n1cc(C(N)=O)c(Nc2ccc(F)cc2)n1` tested on UniProt P23458.
9.52

====

Each record here notes measured bioavailability.
Procedure details: Oral bioavailability in rat at 1 mg/kg
Format: ADME, organism-based
Run parameters: in vivo
Give a bare numeral; the unit % is implied.

Input smiles	bioavailability [%]
N#Cc1ccc(Nc2nn([C@H]3COCC[C@@H]3C#N)cc2C(N)=O)cc1	47
N#C[C@H]1CCOC[C@@H]1n1cc(C(N)=O)c(Nc2ccc(-n3ccnn3)cc2)n1	3
N#C[C@H]1C[C@@H](N2CCC2)CC[C@@H]1n1cc(C(N)=O)c(Nc2ccc([C@H](O)C(F)(F)F)cc2)n1	0
COc1cc(Nc2nn([C@H]3COCC[C@@H]3C#N)cc2C(N)=O)cc(F)n1	49

Shift focus to the following entry.
Please report the recorded bioavailability for `N#C[C@H]1CCOC[C@@H]1n1cc(C(N)=O)c(Nc2ccc([C@H](O)C(F)(F)F)cc2)n1` .
9

====

Procedure details: Intrinsic clearance in rat hepatocytes after 120 mins by LC-MS/MS analysis
Type: ADME, cell-based, Hepatocyte
Run parameters: read-out: CLH
// reported CLint scaled per item

Answered examples (3):
Input smiles	CLint scaled
N#C[C@H]1CCOC[C@@H]1n1cc(C(N)=O)c(Nc2ccccc2)n1	70 mL/min/kg
N#C[C@H]1CCOC[C@@H]1n1cc(C(N)=O)c(Nc2ccc([C@H](O)C(F)(F)F)cc2)n1	< 40 mL/min/kg
N#C[C@H]1CCOC[C@@H]1n1cc(C(N)=O)c(Nc2ccc(F)cc2)n1	< 40 mL/min/kg

So what does the record say about CLint scaled for `COc1cc(Nc2nn([C@H]3COCC[C@@H]3C#N)cc2C(N)=O)ccc1C#N` ?
< 40 mL/min/kg
